This collection of values is drawn from patent EP0294258A1.

- assay.comment: Acute toxicity (DL 50)
- details: in vivo, ip; I.P.
Returns: string. Value is label 1 if measured LD50 is below 200 mg/kg, and label 0 if it is greater than or equal to it.

Record excerpt, results attached:
| compound | category |
| --- | --- |
| CC(C)(O)CC(=O)NN=Cc1ccccc1Cl [1d, reference compound] | label 0 |
| CCC(=NNC(=O)C(C)(C)O)c1ccccc1Cl [Exemple 16] | label 1 |
| CC(C)(O)C(=O)NN=Cc1ccc(Cl)cc1 [1c, reference compound] | label 0 |
| CC(=NNC(=O)CN)c1ccccc1Cl [Exemple 7] | label 1 |
| CSCC(=O)NN=C(C)c1ccccc1Cl [Exemple 8] | label 0 |

LD50 strictly < 200 mg/kg for this compound? CCCCC(=NNC(=O)C(C)(C)O)c1ccccc1Cl [Exemple 26] label 0

Request: CC(=NNC(=O)C(C)(C)O)c1ccc(Cl)cc1 [1b, reference compound] label 1

What about this compound? CC(=NNC(=O)C(C)O)c1ccccc1Cl (stereo not drawn) [Exemple 3] label 0
